- System: A549
- Protocol: NCI tumour cell line growth inhibition, 48 h
Activity calls are given as the source filed them. Cut-off read from the data, not from the text of the source: active = GI50 up to about 1.1 µM and inactive = higher.
Quantity name: GI50

Reported GI50 (A549) for entry O=C(NCCCCCCNCc1cccc2ccccc12)Nc1cccc2ccccc12 is > 100 µM (inactive)

Noted GI50 for CN(Cc1ccccc1)C(=NC#N)N(C)Cc1ccccc1 , tested on A549: > 100 µM (inactive)

GI50 on A549 for c1csc(C(NC2=NCCO2)C2CC2)c1 (configuration not stated) is > 100 µM (inactive)

Entry CC(=O)C1(C)CC(C#N)(C#N)C(C#N)=C1N (configuration not stated) ; assay system A549; GI50 recorded at 25.1 µM (inactive)

A549 GI50 of NCCCCC(NC(=O)C(N)Cc1ccc(O)cn1)C(=O)O (configuration not stated) is > 100 µM (inactive)

Tested system A549; GI50 recorded for O=C1c2ccccc2C(=O)N1c1ccc(Cc2ccc(N3C(=O)c4ccccc4C3=O)cc2)cc1 was > 100 µM (inactive)

# GI50 measured on A549 for item COc1ccc(-c2cc(-c3ccc(Nc4ccnc5cc(C(F)(F)F)ccc45)cc3)nc(N)c2C#N)c2ccccc12 = > 100 µM (inactive)

// GI50 (A549) for CC(C)(C)OC(=O)NCC(O)CNC(=O)OC(C)(C)C = > 100 µM (inactive)

Readout GI50 for COC(=O)Cc1nc2ccccc2o1 , test system A549, was 74.6 µM (inactive)

// assay A549, entry Cc1ccc(C(=O)CC2(O)C(=O)Nc3c(C)cc(Cl)cc32)cc1 (configuration not stated) , GI50 value = > 100 µM (inactive)

Hey, A549 data for CCOC(=O)NC1CC2CCC1(OC)C=C2C (configuration not stated) : GI50 came out at > 100 µM (inactive)

Response field GI50 (A549) for item Brc1cc2c(cc1Br)CN(c1ccccc1)C2 : > 100 µM (inactive)

###

- Tested on: CCRF-CEM
- Protocol: NCI tumour cell line growth inhibition, 48 h
Calls of active or inactive are those of the source. Cut-off read from the data, not from the text of the source: active = GI50 up to about 1.1 µM and inactive = higher.
Hi there, use one of these labels in your reply, thanks! active, inactive

Assay result, entry Cn1c(=O)c2c(ncn2CN2CCN(Cn3cnc4c3c(=O)n(C)c(=O)n4C)CC2)n(C)c1=O — outcome? inactive

Recorded call for Clc1cc(Cl)c2c(Cl)cc(Cl)c3c2c1N=S=N3 ? inactive

Status in this test for Cc1ccc2c(c1)C(=O)C1(C2)Cc2cccc(C)c2C1=O (configuration not stated) ? inactive

What did the test return for CN(C)CCNC(=O)c1cccc2c(NCC(=O)O)c3ccccc3nc12 ? inactive

Could you kindly confirm the outcome this assay logged for C[C@H]1CC[P+](C)(c2ccccc2)C1 (some centres not stated) ? inactive

What did this assay record as the result for Cc1ccc(C2=Nn3c(nc4sc(-c5ccccc5)cc4c3=O)SC2)cc1 ? inactive

# lookup: test call for O=C(Nc1ccccc1Cl)c1ccc([N+](=O)[O-])cc1 inactive

I'd appreciate the recorded outcome for O=C1Nc2c(Cl)cc(Cl)cc2/C1=N/NC(=O)c1ccncc1 from this test. inactive

Assay result, entry C/C(CC(=O)Nc1ccc(NC(=O)/C(C)=N/NS(=O)(=O)c2ccc(C)cc2)cc1)=N\NS(=O)(=O)c1ccc(C)cc1 — outcome? inactive

Which outcome was assigned to Clc1ccc2c(NCCCCN3OC3c3ccccc3)ccnc2c1 (configuration not stated) in this test? inactive

Any idea what this test logged for COc1ccc(N2C(=O)/C(=C\c3ccccc3)SC2c2cc(OC)c(OC)c(OC)c2)cc1 (configuration not stated) ? inactive

Any idea what this test logged for CC1(C)CC2=C(Sc3ccccc3N2)C(=O)C1C(=O)C(=O)Nc1cccc([N+](=O)[O-])c1 (configuration not stated) ? active

What did the test return for CCN(CC)CCC(=O)c1ccc(Oc2ccc(Cl)cc2)cc1 ? inactive

Could you kindly confirm the outcome this assay logged for CN(C)c1cccc2c1C(=O)C=CC21c2ccc(N(C)C)c3c(N(C)C)ccc(c23)C(c2ccccc2)C1c1ccccc1 (configuration not stated) ? inactive

For c1cc2c(c(NC3=NCCO3)c1)CCC2 , which call appears in the assay record? inactive

Identify the outcome logged in this assay for the molecule shown: OC1(c2ccccc2)CSC2=Nc3ccccc3C3CCN1N23 (configuration not stated) inactive

Hi, do you know how COC(=O)C1=C(C(=O)OC)C2CCC1CC2=O (configuration not stated) came out in this test? inactive

What classification did Brc1cc2c(cc1Br)CN(c1ccccc1)C2 end up with in this test? inactive

Which outcome was assigned to CC(=O)NCCC1CN(C(=O)/C=C\C#C[Si](C)(C)C)c2ccccc21 (configuration not stated) in this test? inactive

What did the test return for C[Si](C)(C)/C(Br)=C\CCN1C(=O)CCC1O (configuration not stated) ? inactive

Entry CC(C)=CCC/C(C)=C/Cc1c(O)c(C)cc2c1[nH]c1cc(O)ccc12 : call = ? inactive

Dear colleague, could you share the recorded outcome for CCC1(C(=O)OC(C)(C)C)OC12C(C)CCCC2C (configuration not stated) when you have a moment? inactive

###

Please respond with reported GI50 for every item in the list.
- Test system: ACHN
- Protocol: NCI tumour cell line growth inhibition, 48 h
Activity calls are given as the source filed them. No stated cut-off is given here; in the data, active = GI50 up to about 1.1 µM and inactive = higher.

ACHN data for COC(=O)[C@]1(C)CCC[C@]2(C)[C@@H](CCC(=O)C(C)C)[C@]3(C=O)O[C@@H]3C[C@H]21 ; its GI50: 27 µM (inactive)

Tested on ACHN, the item O=C(Nc1c(Cl)cc([N+](=O)[O-])cc1Cl)C(=O)C(C1OC(=O)c2ccccc21)[N+](=O)[O-] (centres undefined) showed GI50 equal to > 100 µM (inactive)

Field GI50 (ACHN), entry CN(C)CCCn1cnc2ncccc2c1=O : > 100 µM (inactive)

For CCOC(=O)C(Cc1c(C=O)[nH]c2ccccc12)(NC(=O)c1ccccc1)C(=O)OCC on ACHN, measured GI50 was 14.4 µM (inactive)

Item Cn1c(=O)c2c(nc3n2CCCC(=O)N3CCCCl)n(C)c1=O was tested on ACHN; the reported GI50 is > 100 µM (inactive)

Record O=S1OC(c2ccccc2)(c2ccccc2)C(c2ccccc2)(c2ccccc2)O1 has ACHN GI50 equal to 41.7 µM (inactive)

GI50 for ACHN with input C=CCCCC1SC2=C(CC)CCCN2C1=O (centres undefined) equals 89.1 µM (inactive)

Per the reported ACHN data, O=C1c2ccccc2C(=O)N1c1ccc(Cc2ccc(N3C(=O)c4ccccc4C3=O)cc2)cc1 has GI50 of > 100 µM (inactive)

Value (GI50, ACHN) for record N/C(=N\c1cccc(Cl)c1)c1ccccc1N = > 100 µM (inactive)

Query CNC(=O)OC(COC)CN1CCN(c2ccccc2C)CC1 (centres undefined) on ACHN; GI50 returned: > 10 µM (inactive)

// returns GI50 for CCOC(=O)OC1C(Br)C2CCC1(C)C2(C)C (centres undefined) with ACHN; value = 15.3 µM (inactive)

GI50 on ACHN for CC1(C)N=C(N)N=C(N)N1c1cccc(CSc2ccccc2)c1 is 34.4 µM (inactive)

Bench note, ACHN: O=C1CCC(=O)C12CCc1ccccc12 , GI50 reads > 100 µM (inactive)

// GI50 (ACHN) for O=C1CCCc2cc3c(cc21)CC1(Cc2ccccc2C1)C3 = 4.55 µM (inactive)

###

- System: SNB-75
- Protocol: NCI tumour cell line growth inhibition, 48 h
Calls of active or inactive are those of the source. Cut-off read from the data, not from the text of the source: active = GI50 up to about 1.1 µM and inactive = higher. Where a SMILES comes first, the peptide text is derived from it. The star is where a group is joined. Boc = CC(C)(C)OC(=O)*; Bn = c1ccc(C*)cc1
Quantity name: GI50

// sample N#C/C(N)=C(\C#N)NC(=O)C(=O)N/C(C#N)=C(\N)C#N , its GI50 was 29.3 µM (inactive)

Entry C=CCN1C(=O)CC(=O)N(NC2=NNC3(C(=O)N2)c2ccccc2-c2ccccc23)C1=S , GI50 reported as 48.2 µM (inactive)

The molecule listed as O=[N+]([O-])c1cc2[nH]nnc2c2nonc12 shows GI50 equal to 38.5 µM (inactive)

get_value(item= Cc1cc2c(cc1C)[n+]([O-])c(C(=O)C/C(=N/NC(=O)c1ccccc1O)C(=O)Nc1ccccc1C(C)C)c(C)[n+]2[O-] , readout=GI50) returns 88.5 µM (inactive)

Recorded GI50 (molecule O=S1OC(c2ccccc2)(c2ccccc2)C(c2ccccc2)(c2ccccc2)O1 ): > 56.4 µM (inactive)

Kindly note the recorded GI50 for OC12COc3ccccc3C1Oc1ccccc1C2 (stereo not given) , which is > 100 µM (inactive)

Field GI50 (entry COc1cc2oc(=O)cc(C)c2c(OC)c1OC ) reads 67.6 µM (inactive)

Measured GI50, COC(=O)C1C(=O)N(C)C(=O)N2CCCC12 (stereo not given) : > 100 µM (inactive)

Entry COc1ccc(OC)c2c1C(=O)C(O)=C(Cl)C2=O , GI50 reported as > 100 µM (inactive)

# molecule C/C(=N\NC(=S)Nc1ccc(C)cc1)c1nc2cccnc2[nH]1 ; its GI50 = 5.77 µM (inactive)

GET /value?item= C[C@H]1[C@H](C)CC[C@]2(C(=O)OC3OC(CO)C(O)C(O)C3O)CC[C@]3(C)C(=CC[C@@H]4[C@@]5(C)C[C@@H](O)[C@@H]6OC(=O)c7cc(O)c(O)c(O)c7-c7c(cc(O)c(O)c7O)C(=O)OC[C@]6(CO)[C@@H]5CC[C@]43C)[C@H]12 (stereo not given in full) &field=GI50 returns > 88.5 µM (inactive)

GI50 reading for CC1=CC(C)(C)N=C2SC(c3ccc(N)cc3)=NN12 : > 52.5 µM (inactive)

Lookup result for CC(=O)NC1=C(OS(=O)(=O)c2ccc(C)cc2)CN(C)C1=O ; measured GI50: 4.31 µM (inactive)

Reported GI50 for CCOC(=O)/C=C(\C(=O)OCC)n1ccc(=O)n(CC(=O)OCC)c1=O was 9.75 µM (inactive)

response.value for COC(=O)C1=C(C(=O)OC)C2CCC1CC2=O (stereo not given) (field: GI50) = > 100 µM (inactive)

molecule COc1ccc(N(C)S(=O)(=O)c2ccccc2)cc1 , GI50 observed: > 100 µM (inactive)

The recorded GI50 for entry CCc1cc2c(c3c1CCCC3)CC1(Cc3ccc(C(=O)OC)cc3C1)C2 (stereo not given) equals > 100 µM (inactive)

The reported GI50 of the molecule COC(=O)Cc1nc2ccccc2o1 was > 100 µM (inactive)

Field GI50 (entry CS(=O)(=O)N1CC(CCl)c2ccc(O)cc21 (stereo not given) ) reads 2.71 µM (inactive)

Lab note: CC(C)Oc1c(O)c2c3c(oc(=O)n3C=CC2c2ccccc2)c1OC(C)C (stereo not given) gave GI50 of 21.9 µM (inactive)

Field GI50 (entry O=C(OCC1CCCN2CCCCC12)c1cccnc1 (stereo not given) ) reads > 100 µM (inactive)

Short answer for CCC1(C(=O)OC(C)(C)C)OC12C(C)CCCC2C (stereo not given) : GI50 was 32.9 µM (inactive)

Short answer for CCc1nc2c([nH]1)C(=O)c1ccccc1C2=O : GI50 was > 100 µM (inactive)

Kindly note the recorded GI50 for CCc1cc2c(O)c(c1)Cc1cc(CC)cc(c1O)Cc1cc(CC)cc(c1O)Cc1cc(CC)cc(c1O)Cc1cc(CC)cc(c1O)Cc1cc(CC)cc(c1O)Cc1cc(CC)cc(c1O)C2 , which is 28.6 µM (inactive)

Note to self: GI50 recorded for C=C1c2nc3ccccc3n2C=C(c2ccc(OC)cc2)N1c1ccc(OCCN2CCCCC2)cc1 was 50.5 µM (inactive)

Per the record, CC(=O)OCC1OC(n2cc([N+](=O)[O-])c(=O)[nH]c2=O)C(OC(C)=O)C(OC(C)=O)C1OC(C)=O (stereo not given) has GI50 of 54.6 µM (inactive)

Looking up CS(=O)(=O)N1CC(CCl)c2ccc(NCCN)cc21 (stereo not given) , I found its GI50 recorded as 17.1 µM (inactive)

Measured GI50 of CC1(C)N=C(N)N=C(N)N1c1cccc(CSc2ccccc2)c1 : 4.42 µM (inactive)

Query Cc1ccccc1C1OC(=O)c2ccc3ccccc3c21 (stereo not given) yields GI50 of 3.55 µM (inactive)

Recorded result, COC1CCC(=O)N1CN(C(C)=O)c1ccc(C)cc1 (stereo not given) , GI50: > 100 µM (inactive)

Per the record, CN(C)/C=C/c1nnc([N+](=O)[O-])s1 has GI50 of 23.9 µM (inactive)

The reported value for COc1ccc(-c2oc3cc(O)c(OC)c(O)c3c(=O)c2OC2OC(CO)C(O)C(O)C2O)cc1 (stereo not given) in terms of GI50 is > 100 µM (inactive)

Reported GI50 for Clc1ccc2c(NCCCCN3OC3c3ccccc3)ccnc2c1 (stereo not given) was 5.82 µM (inactive)

Recorded GI50 (molecule Cc1noc(/N=C2\C=C(Nc3onc(C)c3C)C(=O)c3ccccc32)c1C ): 69.3 µM (inactive)

Measured GI50 of COc1ccc(CCN(C)C(=O)CC(C#N)(c2ccccc2)c2ccc(OC)c(OC)c2)cc1OC (stereo not given) : > 100 µM (inactive)

Consider COC(=O)C(CC(C)C)NC(=O)C(C)NC(=O)C(Cc1ccc(OCc2ccccc2)cc1)NC(=O)C(COCc1ccccc1)NC(=O)OC(C)(C)C (stereo not given) (Boc-S(Bn)Y(Bn)AL-OMe; configuration not given here) . Its measured GI50 is > 100 µM (inactive)

Entry COC(=O)C1Cc2c(OC)ccc(OC)c2C(O)C1C(=O)OC (stereo not given) , GI50 reported as > 100 µM (inactive)

# GI50 of Cc1ccc(C2=Nn3c(nc4sc(-c5ccccc5)cc4c3=O)SC2)cc1 = > 100 µM (inactive)

GI50 in this record for Cc1c([C@H](C)[C@@H]2NC[C@@H](C)C[C@H]2O)ccc2c1C[C@H]1[C@H]2CC=C2C[C@@H](O)CC[C@@]21C : 17.5 µM (inactive)

Briefly, GI50 measured for Oc1nc2c(c(-c3cccc(Cl)c3)n1)COC/C2=C\c1cccc(Cl)c1 : > 100 µM (inactive)

Reference source: ChEMBL document CHEMBL1201862
